Where do the numbers come from? From patent US20040006236A1.

TEST TARGET: ICAM-1 binding to immobilized Mac-1 (Homo sapiens, UniProt P05107+P11215)
Construct: made in house; host or cells: transfected 293 cells (Mac-1)
Sequence (P05107 23-769, other chains not shown): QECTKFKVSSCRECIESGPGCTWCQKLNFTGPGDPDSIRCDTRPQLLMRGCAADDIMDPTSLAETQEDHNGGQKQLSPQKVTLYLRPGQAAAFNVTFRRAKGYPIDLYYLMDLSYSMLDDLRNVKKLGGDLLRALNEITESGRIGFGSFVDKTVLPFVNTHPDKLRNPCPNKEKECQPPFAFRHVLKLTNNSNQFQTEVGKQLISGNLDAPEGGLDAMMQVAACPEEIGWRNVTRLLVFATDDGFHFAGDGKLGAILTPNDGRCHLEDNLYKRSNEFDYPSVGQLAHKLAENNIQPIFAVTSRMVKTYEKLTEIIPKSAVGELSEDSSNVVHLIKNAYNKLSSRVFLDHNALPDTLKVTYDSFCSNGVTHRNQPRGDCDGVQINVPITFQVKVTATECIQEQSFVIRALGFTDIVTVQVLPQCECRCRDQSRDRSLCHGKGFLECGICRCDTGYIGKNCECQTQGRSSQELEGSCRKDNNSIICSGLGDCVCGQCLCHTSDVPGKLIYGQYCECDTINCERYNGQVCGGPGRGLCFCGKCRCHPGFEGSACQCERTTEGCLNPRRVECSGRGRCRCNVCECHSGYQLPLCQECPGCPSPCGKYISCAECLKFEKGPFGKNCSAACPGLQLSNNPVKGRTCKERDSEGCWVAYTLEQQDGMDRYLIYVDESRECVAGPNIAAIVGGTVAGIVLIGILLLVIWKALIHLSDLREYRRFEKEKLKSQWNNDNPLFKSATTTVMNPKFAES
ASSAY SUMMARY: Mac-1/ICAM-1 screening assay (solid-phase ELISA)
COND: read-out: Mac-1/ICAM-1 Protein-Protein Assay IC50
MEASUREMENT KIND: IC50 (nM)

Worked examples, 5 compounds total:
>>> value_reported("O=C(CCN1CCCCC1)NC[C@H](NC(=O)c1ccc(C(=O)NCc2cccc(O)c2)cc1Cl)C(=O)O [Example 112]")
18
>>> value_reported("O=C(NCc1cccc(O)c1)c1ccc(C(=O)N[C@@H](CNC(=O)C2(c3ccccc3)CC2)C(=O)O)c(Cl)c1 [Example 99]")
50
>>> value_reported("COc1ccc(C(=O)NC[C@H](NC(=O)c2ccc(C(=O)NCc3cccc(O)c3)cc2Cl)C(=O)O)cc1 [Example 135]")
61
>>> value_reported("Cc1ccc(C(=O)NC[C@H](NC(=O)c2ccc(C(=O)NCc3cccc(O)c3)cc2Cl)C(=O)O)cc1 [Example 139]")
47
>>> value_reported("O=C(NCc1ccc(C(=O)N[C@@H](CNC(=O)c2ccccc2)C(=O)O)c(Cl)c1)c1ccc2[nH]ccc2c1 [Example 368]")
765

(A) O=C(NCc1cccc(O)c1)c1ccc(C(=O)N[C@@H](CNC(=O)c2ccccc2Oc2ccccc2)C(=O)O)c(Cl)c1 [Example 144]
(B) CN(C)c1cccc(C(=O)NC[C@H](NC(=O)c2ccc(C(=O)NCc3cccc(O)c3)cc2Cl)C(=O)O)c1 [Example 127]
Which shows the larger IC50 value: A or B ? Let me know the label of the one you choose. A

(a) O=C(NC[C@H](NC(=O)c1c(Cl)cccc1Cl)C(=O)O)c1ccc(Br)s1 [Example 223]
(b) O=C(NCc1cccc(O)c1)c1ccc(C(=O)N[C@@H](CNC(=O)c2nc3ccccc3nc2O)C(=O)O)c(Cl)c1 [Example 186]
Field: entry with larger IC50 (options a / b ). Pick one; state its label. b
(b: 167 nM, a: 82 nM)

---

TEST TARGET: ICAM-1 binding to immobilized Mac-1 (Homo sapiens, UniProt P05107+P11215)
Construct: made in house; host or cells: transfected 293 cells (Mac-1)
ASSAY SUMMARY: Mac-1/ICAM-1 screening assay (solid-phase ELISA)
COND: Mac-1/ICAM-1 Protein-Protein Assay IC50
MEASUREMENT KIND: pIC50
Units for pIC50: none; it is -log10 of a concentration expressed in mol/L.

>>> value_reported("O=C(Cc1ccc([N+](=O)[O-])cc1[N+](=O)[O-])NC[C@H](NC(=O)c1ccc(C(=O)NCc2cccc(O)c2)cc1Cl)C(=O)O")
7.24

Now examine the next entry.
Can you share its pIC50? I mean this compound: O=C(NCc1cccc(O)c1)c1ccc(C(=O)N[C@@H](CNC(=O)c2cc([N+](=O)[O-])cc([N+](=O)[O-])c2)C(=O)O)c(Cl)c1 7.43

---

TEST TARGET: LFA-1 binding to immobilized ICAM-1 (Homo sapiens, UniProt P05107+P20701)
Construct: made in house; host or cells: transfected 293 cells (LFA-1)
Sequence (P20701 26-1170): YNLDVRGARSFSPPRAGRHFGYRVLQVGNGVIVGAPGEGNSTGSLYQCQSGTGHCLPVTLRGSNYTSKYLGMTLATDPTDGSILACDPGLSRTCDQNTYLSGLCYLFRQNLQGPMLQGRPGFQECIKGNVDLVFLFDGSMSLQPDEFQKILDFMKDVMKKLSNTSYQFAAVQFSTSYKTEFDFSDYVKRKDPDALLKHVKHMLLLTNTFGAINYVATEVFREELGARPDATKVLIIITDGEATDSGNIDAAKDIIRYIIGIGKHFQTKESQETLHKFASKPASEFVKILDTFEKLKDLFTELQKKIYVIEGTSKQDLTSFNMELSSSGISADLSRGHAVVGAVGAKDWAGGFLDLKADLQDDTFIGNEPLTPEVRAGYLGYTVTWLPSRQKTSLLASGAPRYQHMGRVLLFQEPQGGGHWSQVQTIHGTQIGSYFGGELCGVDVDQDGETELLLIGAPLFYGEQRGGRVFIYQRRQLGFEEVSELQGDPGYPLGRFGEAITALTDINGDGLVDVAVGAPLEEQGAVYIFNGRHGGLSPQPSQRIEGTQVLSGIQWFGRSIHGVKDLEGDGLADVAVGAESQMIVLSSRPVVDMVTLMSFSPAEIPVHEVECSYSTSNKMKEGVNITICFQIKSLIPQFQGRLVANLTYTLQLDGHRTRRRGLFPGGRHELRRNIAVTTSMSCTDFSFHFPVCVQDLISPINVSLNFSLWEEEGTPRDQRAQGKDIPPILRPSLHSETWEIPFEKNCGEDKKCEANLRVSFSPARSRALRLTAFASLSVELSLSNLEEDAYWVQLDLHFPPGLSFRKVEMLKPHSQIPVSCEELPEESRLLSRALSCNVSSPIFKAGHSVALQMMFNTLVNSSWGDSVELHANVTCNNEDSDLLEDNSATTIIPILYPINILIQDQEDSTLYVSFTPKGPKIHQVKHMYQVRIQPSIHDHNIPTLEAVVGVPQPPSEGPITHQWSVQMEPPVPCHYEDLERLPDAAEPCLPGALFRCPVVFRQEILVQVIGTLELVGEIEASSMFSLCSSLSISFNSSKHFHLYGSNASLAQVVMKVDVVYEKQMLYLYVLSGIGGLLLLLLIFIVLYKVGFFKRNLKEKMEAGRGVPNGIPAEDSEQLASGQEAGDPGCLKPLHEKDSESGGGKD
Sequence (P05107 23-769): as the sequence (P05107 23-769, other chains not shown) above
ASSAY SUMMARY: LFA-1/ICAM-1 protein-protein assay (solid-phase ELISA)
COND: read-out: LFA-1/ICAM-1 Protein-Protein Assay IC50
pIC50: −log10 of the molar value.
MEASUREMENT KIND: pIC50

// solved cases for pIC50 follow
>>> value_reported("O=C(NCc1cccc(O)c1)c1ccc(C(=O)N[C@@H](CNC(=O)c2ccccc2[N+](=O)[O-])C(=O)O)c(Cl)c1")
8.74
>>> value_reported("C[C@H](N)C(=O)NC[C@H](NC(=O)c1ccc(C(=O)NCc2cccc(O)c2)cc1Cl)C(=O)O")
8.51

(P) COc1ccc2nc3ccc(C(=O)NC[C@H](NC(=O)c4ccc(C(=O)NCc5cccc(O)c5)cc4Cl)C(=O)O)cn3c(=O)c2c1
(Q) N[C@@H](CO)C(=O)NC[C@H](NC(=O)c1ccc(C(=O)NCc2cccc(O)c2)cc1Cl)C(=O)O
Of the two listed items, which has the higher pIC50? First: P Second: Q Returns: label corresponding to the selected item. P

---

TEST TARGET: LFA-1 binding to immobilized ICAM-1 (Homo sapiens, UniProt P05107+P20701)
Construct: made in house; host or cells: transfected 293 cells (LFA-1)
ASSAY SUMMARY: LFA-1/ICAM-1 protein-protein assay (solid-phase ELISA)
COND: read-out: LFA-1/ICAM-1 Protein-Protein Assay IC50
pIC50: −log10 of the molar value.
MEASUREMENT KIND: pIC50

>>> value_reported("O=C(NCc1cccc(O)c1)c1ccc(C(=O)N[C@@H](CNC(=O)C2CCC2)C(=O)O)c(Cl)c1 [Example 100]")
8.54
>>> value_reported("COc1ccc(C(=O)NC[C@H](NC(=O)c2ccc(C(=O)NCc3cccc(O)c3)cc2Cl)C(=O)O)c(OC)n1 [Example 168]")
7.92
>>> value_reported("O=C(/C=C/c1cccs1)NC[C@H](NC(=O)c1c(Cl)cccc1Cl)C(=O)O [Example 218]")
7.48
>>> value_reported("Nc1cccn(CC(=O)NC[C@H](NC(=O)c2ccc(C(=O)NCc3cccc(O)c3)cc2Cl)C(=O)O)c1=O [Example 266]")
8.34

(P) O=C(NCc1ccc(C(=O)N[C@@H](CNC(=O)c2ccccc2)C(=O)O)c(Cl)c1)c1cc(O)cc(O)c1 [Example 366]
(Q) N=C(N)NC[C@H](NC(=O)c1ccc(C(=O)NCc2cccc(O)c2)cc1Cl)C(=O)O [Example 371]
(R) COc1cccc(C(=O)NC[C@H](NC(=O)c2c(Cl)cccc2Cl)C(=O)O)c1 [Example 221]
Rank items: key pIC50, increasing. Sort and list the labels as requested. R, Q, P

---

TEST TARGET: ICAM-1 binding to immobilized Mac-1 (Homo sapiens, UniProt P05107+P11215)
Construct: made in house; host or cells: transfected 293 cells (Mac-1)
ASSAY SUMMARY: Mac-1/ICAM-1 screening assay (solid-phase ELISA)
COND: read-out: Mac-1/ICAM-1 Protein-Protein Assay IC50
pIC50: −log10 of the molar value.
MEASUREMENT KIND: pIC50

# annotated cases, reported pIC50 shown
>>> value_reported("CCOc1ccc(C(=O)NC[C@H](NC(=O)c2ccc(C(=O)NCc3cccc(O)c3)cc2Cl)C(=O)O)cc1 [Example 130]")
7.28
>>> value_reported("O=C(NCc1cccc(O)c1)c1ccc(C(=O)N[C@@H](CNC(=O)c2c3ccccc3cc3ccccc23)C(=O)O)c(Cl)c1 [Example 189]")
5.98
>>> value_reported("O=C(Cc1ccccc1)NC[C@H](NC(=O)c1ccc(C(=O)NCc2cccc(O)c2)cc1Cl)C(=O)O [Example 79]")
7.13
>>> value_reported("O=C(NCc1cccc(O)c1)c1ccc(C(=O)N[C@@H](CNC(=O)c2cc(F)cc(F)c2)C(=O)O)c(Cl)c1 [Example 252]")
8.17
>>> value_reported("Cc1ccc(C(=O)NC[C@H](NC(=O)c2ccc(C(=O)NCc3cccc4[nH]ccc34)cc2Cl)C(=O)O)s1 [Example 317]")
7.44
>>> value_reported("O=C(NCc1cccc(O)c1)c1ccc(C(=O)N[C@@H](CNC(=O)c2ccccc2)C(=O)O)c(Cl)c1 [Example 302]")
7.51
>>> value_reported("O=C(NCc1cccc(O)c1)c1ccc(C(=O)N[C@@H](CNC(=O)[C@H](CC2CCCCC2)n2cccc2)C(=O)O)c(Cl)c1 [Example 110]")
6.57
>>> value_reported("O=C(NCc1cccc(O)c1)c1ccc(C(=O)N[C@@H](CNC(=O)c2cccc(O)c2)C(=O)O)c(Cl)c1 [Example 132]")
8.15
>>> value_reported("N[C@@H](Cc1ccccc1)C(=O)NC[C@H](NC(=O)c1ccc(C(=O)NCc2cccc(O)c2)cc1Cl)C(=O)O [Example 199]")
7.44
>>> value_reported("O=C(NCc1cccc(O)c1)c1ccc(C(=O)N[C@@H](CNC(=O)c2ccc3c(c2)S(=O)(=O)c2ccccc2C3=O)C(=O)O)c(Cl)c1 [Example 192]")
7.40

(P) O=C(NCc1cccc(O)c1)c1ccc(C(=O)N[C@@H](CNC(=O)c2cc3ccccc3oc2=O)C(=O)O)c(Cl)c1 [Example 188]
(Q) O=C(NCc1cccc2[nH]ccc12)c1ccc(C(=O)N[C@@H](CNC(=O)c2ccccc2)C(=O)O)c(Cl)c1 [Example 314]
Field: lower recorded pIC50 (choose P or Q ) Field: selected label. Fill in the label of the entry you choose. P

---

Tested on: cell-surface Mac-1 adhesion to immobilized fibrinogen (HL-60 cells)
ASSAY SUMMARY: Mac-1/Fibrinogen cell-based screening assay
Parameters: species or system human
COND: Homo sapiens, HL-60, HL-60 cells; read-out: Mac-1/Fgn Cell based Assay IC50
MEASUREMENT KIND: IC50 (nM)

>>> value_reported("N[C@H](Cc1c[nH]c2ccccc12)C(=O)NC[C@H](NC(=O)c1ccc(C(=O)NCc2cccc(O)c2)cc1Cl)C(=O)O")
235

(P) NCCCCCCCCCCC(=O)NC[C@H](NC(=O)c1ccc(C(=O)NCc2cccc(O)c2)cc1Cl)C(=O)O
(Q) O=C(NCc1cccc(O)c1)c1ccc(C(=O)N[C@@H](CNC(=O)[C@@H]2Cc3c([nH]c4ccccc34)CN2)C(=O)O)c(Cl)c1
// which entry reports the smaller IC50, P or Q ? // caller expects the label of the chosen entry Q
(Q: 167 nM, P: 357 nM)
